- system: Sut1 (UniProt P53032)
- Sequence: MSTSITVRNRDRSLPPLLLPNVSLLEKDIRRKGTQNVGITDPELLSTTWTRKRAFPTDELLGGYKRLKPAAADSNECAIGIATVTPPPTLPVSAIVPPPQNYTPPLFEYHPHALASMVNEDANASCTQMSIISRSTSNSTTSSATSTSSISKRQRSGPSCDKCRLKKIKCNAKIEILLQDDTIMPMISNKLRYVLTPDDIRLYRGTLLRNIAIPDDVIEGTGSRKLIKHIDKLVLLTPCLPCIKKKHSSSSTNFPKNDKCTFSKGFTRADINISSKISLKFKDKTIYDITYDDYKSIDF
- method-description: PBM E-score (8-mer binding enrichment) (E-score (-0.5 to 0.5)); higher = stronger / more preferred TF binding
- condition-summary: protein concentration: 200 nM; construct: GST-full length
In all, about 33,000 sequences were measured (“E-score (-0.5 to 0.5)”: median about -0.017, highest 2% from about 0.3 on). Only a selection was taken, and the highest values are over-represented in it overall.
recorded-metric: PBM E-score
Number, no unit, nothing else.

Known PBM E-score results, listed for orientation:
* GTTCCGGA | 0.342
* ATTCCGGC | 0.177
* AAAGTTCT | 0.149
* ACATTATC | 0.102

(Q) Would you kindly share the measured PBM E-score for AATCCTCG ?
(A) -0.164

(Q) Also AAGTTGCG , if possible.
(A) 0.108

----------
- system: Sut1 (UniProt P53032)
- Sequence: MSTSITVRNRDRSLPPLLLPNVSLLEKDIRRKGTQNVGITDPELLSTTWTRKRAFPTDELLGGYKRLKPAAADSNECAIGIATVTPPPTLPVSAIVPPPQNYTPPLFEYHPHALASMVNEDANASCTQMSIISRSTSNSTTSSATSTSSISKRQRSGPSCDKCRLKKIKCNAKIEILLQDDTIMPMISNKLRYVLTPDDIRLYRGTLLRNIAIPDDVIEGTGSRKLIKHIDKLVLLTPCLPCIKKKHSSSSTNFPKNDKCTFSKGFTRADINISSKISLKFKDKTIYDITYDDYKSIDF
- method-description: PBM E-score (8-mer binding enrichment) (E-score (-0.5 to 0.5)); higher = stronger / more preferred TF binding
- condition-summary: protein concentration: 200 nM; construct: GST-full length
In all, about 33,000 sequences were measured (“E-score (-0.5 to 0.5)”: median about -0.017, highest 2% from about 0.3 on). Shown is part of a subset that was picked to be rich in the highest values.
PBM E-score: recorded values
# answer = number (no unit)

Past entries and their recorded results:
• AACGGACC = 0.191
• ATGTGATC = 0.144

(Q) So what's the measured PBM E-score for this one? GAACAGAC
(A) 0.0707

(Q) Now this one: ACTGGGGC
(A) -0.231

(Q) Next sequence: GAGACCCC
(A) -0.146

(Q) How about ATCTGCAC ?
(A) -0.145

(Q) Next sequence: CAACGGAG
(A) 0.399

(Q) Entry GCGCCAGA please
(A) -0.088

(Q) Also ACCAACAG , if possible.
(A) -0.297

(Q) Subsequent entry: AAACGCGC
(A) -0.123

(Q) Same read-out for ATGTTGAA ?
(A) 0.131
